Target: Glucose-dependent insulinotropic receptor (Homo sapiens) (UniProt Q8TDV5)
Sequence (whole entry): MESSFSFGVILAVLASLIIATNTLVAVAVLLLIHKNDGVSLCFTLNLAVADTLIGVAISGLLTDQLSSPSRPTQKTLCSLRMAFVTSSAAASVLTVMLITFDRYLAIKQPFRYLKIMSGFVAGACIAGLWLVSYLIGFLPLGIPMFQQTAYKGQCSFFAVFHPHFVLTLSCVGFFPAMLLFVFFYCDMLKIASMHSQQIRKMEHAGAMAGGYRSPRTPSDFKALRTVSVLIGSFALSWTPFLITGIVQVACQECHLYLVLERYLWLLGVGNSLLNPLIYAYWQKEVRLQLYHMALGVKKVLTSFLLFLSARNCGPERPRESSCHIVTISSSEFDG
Assay: Agonist activity at GPR119 (unknown origin) assessed as increase in cAMP level at 10 uM by cAMP HTRF assay relative to oleoylethanolamide
Type: functional
Lab note: compare Emax with 10%, writing criterion met if less and criterion not met if equal or more.

Solved entries (count: 5):
[[record]]
mol = "CC(C)(C)OC(=O)N1CC=C(c2nc(COc3ccc(C(C)(C)C)cc3C(C)(C)C)cs2)CC1"
assay_system = "Glucose-dependent insulinotropic receptor (Homo sapiens) (UniProt Q8TDV5)"
class_label = "criterion met"

[[record]]
mol = "CC(C)(C)OC(=O)N1CC=C(c2nc(CNc3ccc(S(C)(=O)=O)cc3)cs2)CC1"
assay_system = "Glucose-dependent insulinotropic receptor (Homo sapiens) (UniProt Q8TDV5)"
class_label = "criterion not met"

[[record]]
mol = "CC(C)(C)OC(=O)N1CC=C(c2nc(CNc3cc(C(F)(F)F)cc(C(F)(F)F)c3)cs2)CC1"
assay_system = "Glucose-dependent insulinotropic receptor (Homo sapiens) (UniProt Q8TDV5)"
class_label = "criterion met"

[[record]]
mol = "CCc1cnc(N2CC=C(c3nc(COc4ccc(S(C)(=O)=O)cc4)cs3)CC2)nc1"
assay_system = "Glucose-dependent insulinotropic receptor (Homo sapiens) (UniProt Q8TDV5)"
class_label = "criterion not met"

[[record]]
mol = "COc1ccc(NCc2csc(C3=CCN(C(=O)OC(C)(C)C)CC3)n2)c(OC)c1"
assay_system = "Glucose-dependent insulinotropic receptor (Homo sapiens) (UniProt Q8TDV5)"
class_label = "criterion met"


Exercise: # TODO verify Emax < 10% strictly for this compound: "CC(C)(C)OC(=O)N1CC=C(c2nc(CNc3ccc(-n4cnnn4)cc3)cs2)CC1"
Key: criterion not met

Exercise: # TODO verify Emax < 10% strictly for this compound: "CCCC(=O)c1ccc(OCc2csc(C3=CCN(C(=O)OC(C)(C)C)CC3)n2)cc1"
Key: criterion not met

Exercise: # TODO verify Emax < 10% strictly for this compound: "CC(C)(C)OC(=O)N1CC=C(c2nc(COc3ccc4c(c3)OCO4)cs2)CC1"
Key: criterion not met

Exercise: # TODO verify Emax < 10% strictly for this compound: "CCc1ccc(N2CC=C(c3nc(COc4ccc(-n5cnnn5)cc4)cs3)CC2)nc1"
Key: criterion not met

Exercise: # TODO verify Emax < 10% strictly for this compound: "CCc1ccc(N2CC=C(c3nc(COc4ccc(-n5cnnn5)cc4Cl)cs3)CC2)nc1"
Key: criterion not met

Exercise: # TODO verify Emax < 10% strictly for this compound: "CC(C)(C)OC(=O)N1CC=C(c2nc(COc3ccc(-n4cnnn4)cc3Cl)cs2)CC1"
Key: criterion not met

Provenance of the data: ChEMBL document CHEMBL4616602
